tested_on: DNA dC->dU-editing enzyme APOBEC-3G (Homo sapiens)
measurement_description: qHTS for inhibitors of Vif-A3G interactions: Cherry picks counterscreen;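 also: potency is read from the fitted curve at half-maximal effect; hits raise yellow fluorescence by blocking Vif-driven A3G-eYFP degradation; nearly all actives have a fitted effect of over 70% in size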
particulars: HeLa A3G-eYFP + Vif (tagged APOBEC3G with the HIV-1 protein that degrades it), eYFP fluorescence, 24 h
Out of some 2,100 compounds screened, about 1,100 (52%) were called active. Roughly 27% stayed inconclusive and do not appear here. The set was probably picked from earlier hits. Some of the results follow.
readout_name: Potency

Record summary for CC[n+]1ccccc1/C=C1\Sc2ccc(C)cc2N1C : reported Potency = 20.6 µM (active)

Record summary for COc1ccc(/C=C/c2ccnc3ccccc23)c(OC)c1 : reported Potency = 16.4 µM (active)

Record summary for Cc1ccc(S(=O)(=O)N2CCCCC2)cc1NC(=O)Cn1ncc(Cl)c(Cl)c1=O : reported Potency = 12.5 µM (active)

Record summary for O=C(NCc1ccco1)C1Cc2c(-c3cccc(F)c3)ccnc2O1 (centres undefined) : reported Potency = 5.59 µM (active)

Record summary for Cc1ccc2[nH]cc(/C=C/c3cc[n+](C)cc3)c2c1 : reported Potency = 1.4 µM (active)

Record summary for O=C(Cn1ncc(Cl)c(Cl)c1=O)N1CCN(S(=O)(=O)c2ccc3ccccc3c2)CC1 : reported Potency = 11.2 µM (active)

Record summary for CN(C)c1ccc(/C=C/c2ccnc3ccc(-c4ccccc4)cc23)cc1 : reported Potency = 5.8 µM (active)

Record summary for CCC1=Nc2cc(C(=O)NCc3cccnc3)ccc2Sc2ccc(C)cc21 : reported Potency = 12.5 µM (active)

Record summary for COc1ccc(S(=O)(=O)N2N=C(C)Oc3ccccc3C2=O)cc1 : reported Potency = 7.9 µM (active)

Record summary for O=C(NC1CCCCC1)c1cccc2c1C(=O)c1ccc(N3CCC(Cc4ccccc4)CC3)cc1S2(=O)=O : reported Potency = 15.8 µM (active)

Record summary for CCN(CC)S(=O)(=O)c1cc([N+](=O)[O-])ccc1N=Nc1c(O)[nH]c2ccccc12 : reported Potency = 23.1 µM (active)

Record summary for CCN1/C(=C/c2cccc[n+]2C)Sc2ccc(OC)cc21 : reported Potency = 20.6 µM (active)

Record summary for CCOC(=O)N1CCN(C(=O)c2cc(-c3ccc(OCC)cc3)nc3ccccc23)CC1 : reported Potency = 7.04 µM (active)

Record summary for C[n+]1ccc(/C=C/c2c[nH]c3ccc(F)cc23)cc1 : reported Potency = 5.8 µM (active)

Record summary for COC(=O)C1=C(C)NC2=C(C(=O)CC(c3cccs3)C2)C1c1ccsc1 (centres undefined) : reported Potency = 12.5 µM (active)

Record summary for C1=Cc2ccccc2/C1=C\c1cc2c3c(c1)CCCN3CCC2 : reported Potency = 13 µM (active)

Record summary for CN(C)c1ccc(/C=C/c2ccnc3ccccc23)cc1 : reported Potency = 20.6 µM (active)

Record summary for CN1C2CCC1/C(=C/c1cccn1C)C(=O)/C2=C\c1cccn1C : reported Potency = 8.2 µM (active)

Record summary for Cc1cccc(C)c1OCCNC(=O)C(=O)NCc1ccco1 : reported Potency = 2.8 µM (active)

Record summary for N#CCSc1ccccc1NC(=O)COc1ccc(-c2nnco2)cc1 : reported Potency = 12.5 µM (active)

Record summary for CN(C)c1ccc(/C=C/c2ccnc3ccccc23)c(N)c1 : reported Potency = 2.91 µM (active)

Record summary for COc1cc(C(=O)c2ccc3c(c2)OCO3)cc(OC)c1OC : reported Potency = 5.59 µM (active)

Record summary for COc1cc(OC)c(/C=C/c2ccnc3ccccc23)c(OC)c1 : reported Potency = 7.31 µM (active)

Record summary for CC1(C(=O)NCc2cccs2)Cc2c(-c3ccc(C(N)=O)cc3)ccnc2O1 (centres undefined) : reported Potency = 9.94 µM (active)

Record summary for CC1(C)Cc2nc3sc4c(=O)n(CC(=O)NCc5ccccc5)cnc4c3cc2CO1 : reported Potency = 3.96 µM (active)

Record summary for CC(CC(=O)Nc1ccc2c(c1)c(=O)n(C)n2-c1ccccc1)c1ccccc1 (centres undefined) : reported Potency = 3.96 µM (active)

Record summary for COc1ccc(Cl)cc1NC(=O)CN(C)CC(=O)Nc1ccccc1N1CCOCC1 : reported Potency = 1.58 µM (active)

Record summary for O=[N+]([O-])c1ccc(C2=NN(c3ccccc3)C(c3ccco3)C2)cc1 (centres undefined) : reported Potency = 0.498 µM (active)

Record summary for COc1cc(NC(=O)C2=C(N3CCOCC3)/C(=C\c3ccc(N(C)C)cc3)CCC2)cc(OC)c1OC : reported Potency = 3.53 µM (active)

Record summary for Cn1c(=O)c2cc(NC(=O)Cc3cccc4ccccc34)ccc2n1-c1ccccc1 : reported Potency = 11.2 µM (active)

Record summary for CC(=O)/C(N=Nc1cc(C)ccc1O)=C(\C)O : reported Potency = 20.6 µM (active)

Record summary for CN(C)c1ccc2ccc3cccc4ccc1c2c34 : reported Potency = 13 µM (active)

Record summary for CN(C)c1ccc(/C=C/C=C/c2ccnc3ccccc23)cc1 : reported Potency = 4.61 µM (active)

Record summary for COc1cc2c(cc1OC)C1=CC(=O)C(=O)N1C(C)(C)C2 : reported Potency = 14 µM (active)

Record summary for CCOc1ccccc1NC(=O)Cn1nnc(C(=O)NCc2cccs2)c1N : reported Potency = 0.651 µM (active)

Record summary for CC(CC(=O)Nc1ccc2c(c1)c(=O)n(C)n2-c1ccccc1F)c1ccccc1 (centres undefined) : reported Potency = 15.8 µM (active)

Record summary for O=[N+]([O-])c1ccc(/C=C/C2=NN(c3ccccc3)C(c3ccco3)C2)o1 (centres undefined) : reported Potency = 2.31 µM (active)

Record summary for Cc1ccnc(NC(=O)Nc2ccc3c(c2)N(C)C(=O)CS3)c1 : reported Potency = 2.59 µM (active)

Record summary for COc1ccc2[nH]cc(/C=C/c3cc[n+](C)cc3)c2c1 : reported Potency = 9.2 µM (active)

Record summary for OCC[n+]1ccc(/C=C/c2c[nH]c3ccccc23)cc1 : reported Potency = 18.4 µM (active)

Record summary for COc1cccc(N2CC(O)=C(c3nc4ccccc4s3)C2=N)c1 : reported Potency = 7.9 µM (active)

Record summary for Cc1cc(C)cc(NC2=NC3(CCCCC3)N=C(N)N2)c1 : reported Potency = 19.8 µM (active)

Record summary for O=C(NC1CC1)c1cccc2c1C(=O)c1ccc(N3CCC(Cc4ccccc4)CC3)cc1S2(=O)=O : reported Potency = 20.6 µM (active)

Record summary for COc1ccc2c(c1)N(C)/C(=C/c1cccc[n+]1C)S2 : reported Potency = 17.7 µM (active)

The measurements presented in this section are drawn from PubChem BioAssay AID651813.
